target.or.system: CYP2E1 (Homo sapiens)
Sequence (P05181 whole entry): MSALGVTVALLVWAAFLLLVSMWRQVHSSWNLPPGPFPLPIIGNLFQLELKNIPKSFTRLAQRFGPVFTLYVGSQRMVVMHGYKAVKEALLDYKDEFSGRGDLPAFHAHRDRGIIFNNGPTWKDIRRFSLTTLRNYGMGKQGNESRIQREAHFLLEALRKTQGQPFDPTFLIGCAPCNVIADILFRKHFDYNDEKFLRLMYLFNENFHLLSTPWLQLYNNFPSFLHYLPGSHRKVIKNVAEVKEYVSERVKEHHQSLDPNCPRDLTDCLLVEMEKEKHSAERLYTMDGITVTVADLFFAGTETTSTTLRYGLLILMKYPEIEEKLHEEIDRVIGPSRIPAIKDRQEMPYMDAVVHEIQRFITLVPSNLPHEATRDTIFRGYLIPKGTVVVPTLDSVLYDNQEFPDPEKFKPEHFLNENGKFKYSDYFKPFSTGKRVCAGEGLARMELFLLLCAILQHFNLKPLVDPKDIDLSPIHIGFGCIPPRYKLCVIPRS
readout.name: IC50 (µM)
API: value field is a number in µM; no unit string.

The observed IC50 for COc1cc(O)cc2c1C(=O)C[C@@H](c1ccccc1)O2 when tested with CYP2E1 (Homo sapiens) stands at 11

Entry source: paper PMC9154758
